# System: SF-268 CNS
# assay-overview: NCI tumour cell line growth inhibition, 48 h
Task for the reader: assign each of the following compounds its reported TGI.

Reference set, count: 2
Endpoint output: TGI of `CSC1(SC)CCCCCCCCCCC1` . Value?
> 100 µM

Likewise for `O=C(O)c1ccc(Nc2cnc3ccc(C(F)(F)F)cc3n2)cc1` ?
> 100 µM

Then there is this compound:
Give the measured TGI of `CCCCCCCCC(=O)NCCCNCCCNC(=O)CCCCCCCC` .
26 µM

###

# Tested on: MOLT-4 leukemia
# assay-overview: NCI tumour cell line growth inhibition, 48 h
experimental-endpoint: TGI

Would you please look over these solved cases?
I would be grateful if you could share the reported TGI for `C=C1c2nc3ccccc3n2C=C(c2ccccc2)N1c1ccc(OC)cc1` .
> 100 µM

Param item: CN1CC(C(=O)NC2(C)OC3(O)C4CCCN4C(=O)C(Cc4ccccc4)N3C2=O)C=C2c3cccc4[nH]cc(c34)CC21 (stereo not given)
> 100 µM

Give TGI for each of the items listed below.
1. Cc1nc(C(N)=S)sc1C(=O)CC(=O)C(=O)Nc1cccc(Cl)c1C
2. O=c1[nH]c(-c2ccccn2)nc2sc3c(c12)CCCCCC3
3. O=C(Cc1nc2ccc([N+](=O)[O-])cc2[nH]c1=O)C(=O)Nc1cc(Cl)c(Cl)cc1Cl

["> 100 µM", "> 100 µM", "> 100 µM"]

###

# Tested on: OVCAR-5 ovarian
# assay-overview: NCI tumour cell line growth inhibition, 48 h
Would you kindly list TGI for each of these compounds?

Please report the recorded TGI for `C=CC[PH+](c1ccccc1)c1ccccc1.C=CC[PH+](c1ccccc1)c1ccccc1.[Cl][Pt][Cl]` .
30.4 µM

Now the compound Cc1nn(C(=O)c2ccccc2O)c2c1C(c1ccc(O)cc1)SC(N)=N2 (stereo not drawn)
> 10 µM

Return reported TGI values for all items listed beneath this line.
1. Cn1c(=O)c2[nH]c(N/N=C3/SCC(=O)N3Cc3ccccc3)nc2n(C)c1=O
2. COc1cccc(N2N=C3c4ccccc4-n4c(nc5ccccc54)C3C2N)c1 (stereo not drawn)
3. CCOC(=O)NNC(=O)NC12CC3CC(CC(C3)C1)C2
4. Cc1ccc(OCCCCCCNCCO)c(C)c1
5. CCC1(O)CN(CCOC)[C@H]2C[C@@H]1C(=O)c1[nH]c3ccccc3c12 (stereo partly drawn)
6. CCOc1cc(C=O)ccc1O

> 100 µM
> 100 µM
> 100 µM
28 µM
> 100 µM
> 100 µM

Hi there! I need TGI for each item below, if you can.
1. CCOc1ccc(NC(=S)/N=C/C(C(=O)Nc2ccccc2C)=C(\C)O)cc1
2. CCCCCCCCCCCCCCCCCC1=NC(C)(C)CN1CCO
3. CCCCCCCCCCCCCCCC(=O)OCC1OC(n2ccc(N)nc2=O)C(O)C1O (stereo not drawn)
4. BrCC[P+](c1ccccc1)(c1ccccc1)c1ccccc1
5. COc1cc(OC)cc(N2CCN(C(=O)Nc3nc4cc(F)ccc4nc3OC)CC2)c1

1: > 100 µM; 2: 3.6 µM; 3: > 100 µM; 4: 26.8 µM; 5: > 100 µM

###

# System: LOX IMVI melanoma
# assay-overview: NCI tumour cell line growth inhibition, 48 h
experimental-endpoint: log10 TGI (log10 of the value in µM)
Please be aware that the numbers have been log10-transformed from TGI in µM.

Example molecules with recorded log10 TGI:
Could you share which log10 TGI value was measured for `CN(C)CCn1c(=O)c2ccc(NCCNCCO)c3c(=O)c4cc(O)ccc4n(c1=O)c23` ?
0.65

Another molecule to look at: C/C(=N/Nc1ccc([N+](=O)[O-])cc1[N+](=O)[O-])C(CC(C(=O)Nc1ccccc1C)/C(C)=N\Nc1ccc([N+](=O)[O-])cc1[N+](=O)[O-])C(=O)Nc1ccccc1C (stereo not drawn)
1.56

Same question, `COC(=O)CCc1ccc2c(c1)CC1(C2)Cc2ccc(CCC(=O)OC)cc2C1` this time
1.99

Please give the result for CN1CC(C(=O)NC2(C)OC3(O)C4CCCN4C(=O)C(Cc4ccccc4)N3C2=O)C=C2c3cccc4[nH]cc(c34)CC21 (stereo not drawn) too.
1.56

Also need CC(C)[Si]1(C(C)C)OCC2OC(n3cnc4c(N)ncnc43)C(N)C2O[Si](C(C)C)(C(C)C)O1 (stereo not drawn) , thanks.
1.33

And then CC(C)(C)NCCC(O)c1cc(C(F)(F)F)nc2c(C(F)(F)F)cccc12 (stereo not drawn) , what is it?
0.73

Turning to the following molecule.
Any idea what its log10 TGI is? The molecule is CN(C)CCNC(=O)c1cccc2c(NC(CS)C(=O)O)c3ccccc3nc12 (stereo not drawn)
1.32

###

# Test system: UACC-62 melanoma
# assay-overview: NCI tumour cell line growth inhibition, 48 h
experimental-endpoint: TGI

For the compound `Nc1ccc2c(c1)CN1C(=O)c3ccccc3C1=N2` , what TGI is on record?
> 116 µM

Param item: `COc1ccc(C[C@H]2COC(=O)[C@@H]2Cc2cc(OC)c(OC)c(OC)c2)cc1OC`
> 100 µM

// query: Cc1cc2c(cc1Cl)SC1=NN(C)C(c3ccccc3O)N1S2(=O)=O (stereo not given)
> 100 µM

Please look at the items below and tell me TGI for each one, in order.
1. CN(Cc1nc2c(N)nc(N)nc2nc1N)c1ccc(C(=O)NC(CCC(=O)O)C(=O)O)cc1 (stereo not given)
2. CCOC(=O)C(Cc1c(-c2[nH]c3ccccc3c2CC(NC(=O)CNC(C)=O)C(=O)OCC)[nH]c2ccccc12)NC(=O)CNC(C)=O (stereo not given)
3. O=C1CC2Sc3ccccc3N=C2N1c1ccc(Cl)cc1Cl (stereo not given)
4. COC(=O)C1=C(O)C(C(=O)OC)[C@@]2(O)[C@@H](C(=O)OC)C(c3ccc(OC(=O)C(CC(C)C)NC(C)=O)cc3)C[C@@H]1[C@@H]2C(=O)OC (stereo not given in full)

1. > 100 µM
2. > 100 µM
3. > 100 µM
4. 63.8 µM

Okay, here is my list. What is TGI for each of these?
1. CSc1s[s+]c(SC)c1-c1ccccc1
2. COc1ccc(S(=O)(=O)NCCNc2nccc(-c3c(-c4ccccc4)nc4sccn34)n2)cc1
3. COc1ccccc1NC(=O)C(=O)C1C(=O)Nc2ccccc2S1=O (stereo not given)

28.3 µM
> 100 µM
> 100 µM

# map each compound to its TGI
1. Cc1c(-c2coc(-c3ccc(Cl)cc3)n2)c(=O)n(-c2ccccc2)n1C
2. CCCCCCCCCCCCCCCC(=O)OCC1OC(n2ccc(N)nc2=O)C(O)C1O (stereo not given)
3. CCNC(=O)Oc1ccc(/C(=C(\C)c2ccc(Cl)cc2)c2ccc(OCCN3CCCCC3)cc2)cc1

1: > 100 µM; 2: > 100 µM; 3: 6.01 µM

###

Can you tell me TGI for the items I'm about to list?
# System: SK-MEL-5 melanoma
# assay-overview: NCI tumour cell line growth inhibition, 48 h

Given `COc1cc2c(c(OC)c1OC)-c1ccc(SC)c(=O)cc1[C@@H](NC(=O)c1ccc(C#N)cc1)CC2` , state its recorded TGI.
< 0.01 µM

Please answer likewise for COC1=CC2(C=CC1=O)CCN=c1c(O)c3c(c(O)c12)=NC=N3 (stereo unspecified)
> 100 µM

How about this compound: CCCCCCCC(CC(=O)O)OC(=O)CC(CCCCCCC)OC1OC(C)C(O)C(O)C1OC1OC(C)C(O)C(O)C1O (stereo unspecified)
> 100 µM

`O=C(O)c1ccccc1-c1ccccc1C(=O)c1ccccc1` , same question.
> 100 µM

For `Fc1nc(F)nc(-c2c3ccccc3c3n2CCS3)n1` then?
> 100 µM

Turning now to a further record.
Consider the compound `Cc1ccc(S(=O)(=O)NC(=O)NS(=O)(=O)O)cc1` and give its measured TGI.
> 100 µM

###

# Tested on: OVCAR-4 ovarian
# assay-overview: NCI tumour cell line growth inhibition, 48 h; in the data active = GI50 below about 0.43 µM; inactive = the rest
Bench note: report the call from active, inactive

Solved cases below.
Please indicate how the test categorized CC1(C)CC2(C)OC2C2(C1)N=NC(=Nc1ccccc1)O2 (stereo not given) .
inactive

# repeat for CC1SC2(CCCCC2)N(NC(=O)c2[nH]c3ccc(F)cc3c2-c2ccccc2)C1=O (stereo not given)
inactive

***
What was the test verdict on CCC1(N2C(=O)c3c(F)c(F)c(F)c(F)c3C2=O)C(=O)NC(=O)N(c2ccccc2)C1=O (stereo not given) ?
inactive

What about COc1ccc(N(Cc2cc(OC)c(OC)c(OC)c2)C2OC(=O)c3ccccc32)cc1 (stereo not given) ?
inactive

Entry `CC(=O)N[C@@H]1CCC[C@H](C(=O)Nc2cc(-c3cnn4c3CC(C)(C)C4)c(Cl)cn2)C1` please
active

###

# Test system: OVCAR-5 ovarian
# assay-overview: NCI tumour cell line growth inhibition, 48 h
Give TGI for every item shown.

Below are worked cases with known answers.
Suppose we examine the compound `CCOP(=O)(OCC)C(F)(F)CC1CCCCC1` ; what TGI value has been reported?
> 10 µM

// next record CSc1nc2c(ncn2C2OCC(O)C(O)C2O)c(=O)[nH]1 (stereo not given)
> 100 µM

Consider the following items and state reported TGI for each.
1. COC(=O)c1cc2c3c(c(C(C)=O)c(OC)c2[nH]1)NCC3
2. O=C(O)CNC(=O)c1cccc2c(=O)c3ccccc3[nH]c12
3. COc1ccc(C=O)cc1Oc1ccc(C[C@H]2c3c(cc(OC)c4c3Oc3cc5c(cc3O4)CCN(C)C5=O)CCN2C)cc1
4. COc1ccc(S(=O)(=O)Nc2ccc(-c3csc(N4C(=O)/C(=C/C=C\c5ccccc5)N=C4c4ccccc4)n3)cc2)cc1Cl

1. > 50 µM
2. > 100 µM
3. 34.8 µM
4. > 100 µM

Give one value of TGI per listed compound.
1. COC1(OC)N=C(N)C2(C#N)/C(=N/N(C)C)CC(C)C12C#N (stereo not given)
2. O=C(CCCN1CCc2[nH]c3cc(F)ccc3c2C1)c1ccc(F)cc1
3. CCOC(=O)C1=C(c2ccccc2)N(Cc2ccccc2)C2(O)C=CC(=O)C3C(=O)N(c4ccccc4)C(=O)C132 (stereo not given)
4. CN1c2ccccc2C(=O)Nc2cnc(Cl)nc21

> 100 µM
24.7 µM
15.5 µM
> 100 µM
